Biological target: GDP-bound KRAS wild-type protein (Homo sapiens, UniProt P01116)
Sequence (P01116 whole entry): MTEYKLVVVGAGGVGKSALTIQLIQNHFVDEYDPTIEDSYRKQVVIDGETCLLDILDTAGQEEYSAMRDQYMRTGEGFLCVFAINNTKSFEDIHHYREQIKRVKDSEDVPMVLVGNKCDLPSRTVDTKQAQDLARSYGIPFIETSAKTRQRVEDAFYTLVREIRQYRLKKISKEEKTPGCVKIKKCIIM
Assay: Binding to KRAS by surface plasmon resonance (SPR), Single Cycle Kinetics
Conditions: SPR Single Cycle Kinetics, GDP-bound KRAS wild-type protein, 1:1 binding model; read-out: KRAS KD
pKd: −log10 of the molar value. Where a SMILES comes first, the peptide text is derived from it. Bridges are numbered along the chain shown (N, C = ends). [ ]: non-standard residue; d: D form. The star is where a group is joined. hPhe(3,5-F2-4-CF3) = N[C@@H](CCc1cc(F)c(C(F)(F)F)c(F)c1)C(=O)O; NPrPhe(4-CF3) = CCCN[C@@H](Cc1ccc(C(F)(F)F)cc1)C(=O)O; NMeGly(cPent) = CN[C@H](C(=O)O)C1CCCC1; Ac4c(3,3-F2) = NC1(C(=O)O)CC(F)(F)C1; NMeD = CN[C@@H](CC(=O)O)C(=O)O; NMeL = CN[C@@H](CC(C)C)C(=O)O; Morpholide = C1CN(*)CCO1; Aze = O=C(O)[C@@H]1CCN1; Sar = CNCC(=O)O
Returns one of y or n; y when pKd is >= 10.

CCO[C@@H]1C[C@H]2C(=O)NC3(CCC3)C(=O)N(C)[C@@H](C3CCCC3)C(=O)N(C)[C@H](C(=O)N3CCOCC3)CC(=O)N(C)[C@@H](CC(C)(C)C)C(=O)N[C@@H]([C@@H](C)CC)C(=O)N(C)CC(=O)N(C)[C@H]3CCCCN(C3=O)[C@@H](Cc3ccc(C(F)(F)F)cc3)C(=O)N(C)CC(=O)N[C@@H](CCc3cc(F)c(C(F)(F)F)c(F)c3)C(=O)N2C1 [PP0714]	y

Entry CCC[C@H]1C(=O)N[C@@H]([C@@H](C)CC)C(=O)N(C2CC2)CC(=O)N(C)[C@H]2C/C=C\CCN(C2=O)[C@@H](Cc2ccc(C)cc2)C(=O)N(C)CC(=O)N[C@@H](CCc2cc(F)c(C(F)(F)F)c(F)c2)C(=O)N2C[C@H](OCC)C[C@H]2C(=O)NC2(CC(C)(C)C2)C(=O)N(C)[C@@H](C(CC)CC)C(=O)N(C)[C@H](C(=O)N(C)C)CC(=O)N1C [PP2560] : is its pKd no less than 10?
n

Entry CCCN1C(=O)CN(C)C(=O)[C@@H]2CCN2C(=O)[C@H]([C@@H](C)CC)NC(=O)[C@H](CC(C)C)N(C)C(=O)C[C@@H](C(=O)N2CCOCC2)N(C)C(=O)[C@H](C2CCCC2)N(C)C(=O)C2(CC(F)(F)C2)NC(=O)[C@@H]2CCCN2C(=O)[C@H](CCc2cc(F)c(C(F)(F)F)c(F)c2)NC(=O)CN(C)C(=O)[C@@H]1Cc1ccc(C(F)(F)F)cc1 [PP0783] ([NMeL]I[Aze][Sar][NPrPhe(4-CF3)][Sar][hPhe(3,5-F2-4-CF3)]P[Ac4c(3,3-F2)][NMeGly(cPent)][NMeD]-Morpholide; lactam N-11) : is its pKd no less than 10?
n

Entry CCO[C@@H]1C[C@H]2C(=O)NC3(CCC3)C(=O)N(C)[C@@H](C(CC)CC)C(=O)N(C)[C@H](C(=O)N3CCCC3)CC(=O)N(C)[C@H]3CCC/C=C/c4ccc(cc4)C[C@@H](C(=O)N(C)CC(=O)N[C@@H](CCc4cc(F)c(C(F)(F)F)c(F)c4)C(=O)N2C1)N1CC/C=C\C[C@@H](C1=O)N(C)C(=O)CN(C1CC1)C(=O)[C@H]([C@@H](C)CC)NC3=O [PP2957] : is its pKd no less than 10?
n
